- System: RXF 393
- assay name: NCI tumour cell line growth inhibition, 48 h
The source made the active and inactive calls. Rule as the data show it: active = GI50 up to about 1.1 µM and inactive = higher.
Each entry below carries its recorded GI50.

Worked cases, answers included:
1. O=C1C(Cl)C(c2cccc([N+](=O)[O-])c2)N1n1cnc2ccccc2c1=O (centres undefined) = > 100 µM (inactive)
2. CCC(C)N1CN(c2ccccc2)C2(CCN(CCCC(=O)c3ccc(F)cc3)CC2)C1=O (centres undefined) = 14.2 µM (inactive)
3. CC(C)(C)[Si](C)(C)OCCC1CC2(S(=O)(=O)C3=CC=C=C=C3)ON1CC2S(=O)(=O)c1ccccc1 (centres undefined) = > 10 µM (inactive)

Attention now turns to another entry.
## Task Reported GI50 for CC(NC(=O)/C(=C/c1ccccc1)NC(=O)c1ccccc1)C(=O)O (centres undefined) : what is it?
## Result > 100 µM (inactive)

---

Each entry below carries its recorded GI50.
- System: UO-31
- assay name: NCI tumour cell line growth inhibition, 48 h
Activity calls are given as the source filed them. Cut-off read from the data, not from the text of the source: active = GI50 up to about 1.1 µM and inactive = higher.

1. O=C1C(N2CCN(CCOCCO)CC2)=C(Cl)C(=O)c2ncccc21 = 17.7 µM (inactive)

## Task Reported GI50 for c1csc(-c2csc(-c3cccs3)c2)c1 : what is it?
## Result 57.8 µM (inactive)

## Task Can you check COC1=Nc2ccccc2S(=O)(=O)C=C1 next?
## Result 5.46 µM (inactive)

## Task Can you check O=C(CP(=O)(c1ccccc1)c1ccccc1)c1cccc(C(=O)CP(=O)(c2ccccc2)c2ccccc2)c1 next?
## Result 20.3 µM (inactive)

## Task Can you check O=C(C#Cc1ccccc1)C1=Cc2ccccc2OC1 next?
## Result 2.06 µM (inactive)

## Task Can you check N#CC12C3C4CC5C6C4C1C6C(O)(C53)N2Cc1ccccc1 (stereo not drawn) next?
## Result > 100 µM (inactive)

## Task Can you check N#Cc1c(Cl)c2ccccc2n2c1nc1ccccc12 next?
## Result 16.1 µM (inactive)

## Task Can you check Nc1ncnc2c1cnn2Cc1ccc(Cl)cc1 next?
## Result 78.5 µM (inactive)

## Task Can you check O=C(/C=C/c1ccccc1)CC(=O)CCC(=O)Nc1ccc(Cl)cc1 next?
## Result 94 µM (inactive)

## Task Can you check C=CC1CN(C(=O)OCC)N(C(=O)OCC)C1CCc1ccccc1 (stereo not drawn) next?
## Result 74.1 µM (inactive)

---

- System: HOP-62
- assay name: NCI tumour cell line growth inhibition, 48 h
Active and inactive are the calls of the source. No stated cut-off is given here; in the data, active = GI50 up to about 1.1 µM and inactive = higher.
// one of yes (active), no (inactive), no free text

## Task Any idea what this test logged for O=C(O)/C=C/c1c2ccc(=O)c(O)c-2oc2c(O)c(O)ccc12 ?
## Result no

## Task Can you check COC(=O)c1ccc(/N=N/N(C)COc2ccc(C#N)cc2)cc1 next?
## Result no

## Task Can you check O=C(CCc1cccc(O)c1)NCCc1cccc(O)c1 next?
## Result no

## Task Can you check CC1=NNC(=O)[C@H]2[C@H]1CCC1[C@@H]2CC[C@]2(C)[C@@H](O)CC[C@@H]12 (stereo not given in full) next?
## Result no

## Task Can you check COc1cc2c(cc1OCCCOc1cc3c(cc1OC)C(=O)N1CCC[C@H]1CN3)N=C[C@@H]1CCCN1C2=O next?
## Result yes

## Task Can you check O=c1oc2ccccc2n1CCCn1c(=O)oc2ccccc21 next?
## Result no

## Task Can you check O=C(O)c1c(-c2ccccc2)c(=O)[nH]c2ccccc12 next?
## Result no

## Task Can you check CC#COP(=O)(OCC)OCC next?
## Result no

## Task Can you check COc1cccc(-c2cc(O)c3cc(NC(C)=O)ccc3n2)c1 next?
## Result no

## Task Can you check O=C(NC(=S)Nc1ccccc1)c1ccc([N+](=O)[O-])cc1 next?
## Result no

## Task Can you check Oc1ccc(Oc2cc3c(cc2Oc2ccc(O)cc2)-c2nc-3nc3[nH]c(nc4nc(nc5[nH]c(n2)c2cc(Oc6ccc(O)cc6)c(Oc6ccc(O)cc6)cc52)-c2cc(Oc5ccc(O)cc5)c(Oc5ccc(O)cc5)cc2-4)c2cc(Oc4ccc(O)cc4)c(Oc4ccc(O)cc4)cc32)cc1 next?
## Result no

## Task Can you check CCCCCCCCCCCCCCCCCCNc1ccn(C2OC(COP(=O)(O)OCC3OC(n4cc(F)c(NCCCCCCCCCCCCCCCCCC)nc4=O)CC3O)C(O)C2O)c(=O)n1 (stereo not given) next?
## Result no

## Task Can you check CC1CC(C)C(C#N)N(C)c2ccccc21 (stereo not given) next?
## Result no

## Task Can you check Cn1c(=O)c2c(nc(NCCCCl)n2CC(=O)O)n(C)c1=O next?
## Result no

## Task Can you check Cc1ccc2c(c1)C(=O)N1CCC[C@H]1C=N2 next?
## Result no

## Task Can you check CN(C)CCC[N+]1=Nc2cccc3cccc(c23)N1 next?
## Result no
